Biological target: T1, T25-HP0221 (NifU) (Helicobacter pylori strain 26695, UniProt O25009 2-326)
T1 sequence (looked up): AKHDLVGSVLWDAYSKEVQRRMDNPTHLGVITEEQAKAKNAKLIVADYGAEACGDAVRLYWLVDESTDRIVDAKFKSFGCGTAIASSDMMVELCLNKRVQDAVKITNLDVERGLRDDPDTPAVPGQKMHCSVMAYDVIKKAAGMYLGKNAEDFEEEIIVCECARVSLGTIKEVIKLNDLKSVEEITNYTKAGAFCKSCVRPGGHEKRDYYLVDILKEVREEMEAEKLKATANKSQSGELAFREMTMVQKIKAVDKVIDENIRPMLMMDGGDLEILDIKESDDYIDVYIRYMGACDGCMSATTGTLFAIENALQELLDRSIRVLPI
Test: two-hybrid
endpoint: growth OD595 in M63-maltose (OD595)
All answers are understood in OD595, so give the number only.

Some binders with known growth OD595 in M63-maltose results, for comparison:
{"binder": "T18-HP0625 (natural protein, Helicobacter pylori strain 26695, UniProt O25342 2-359, looked up) LENRVKTKQIFIGGVAIGGDAPISTQSMTFSKTADIESTKNQIDRLKLAGADLVRVAVSNEKDALALKELKKVSPLPLIADIHFHYKFALIAAQSVDAIRINPGNIGSKEKIKAVVDACKEKNIPIRIGVNAGSLEKQFDQKYGPTPKGMVESALYNAKLLEDLDFTNFKISLKASDVIRTIEAYRMLRPLVIYPFHLGVTEAGNLFSSSIKSAMALGGLLMEGIGDTMRVSITGELENEIKVARAILRHSGRLKEGINWISCPTCGRIEANLVDMAIKVEKRLSHIKTPLDISVMGCVVNALGEAKHADMAIAFGNRSGLIIKEGKVIHKLAEKDLFETFVIEVENLAKEREKSLKD", "endpoint": "growth OD595 in M63-maltose", "reportedMeasurement": 0.11}
{"binder": "T18-HP0654 (natural protein, Helicobacter pylori strain 26695, UniProt O25368 2-360, looked up) DFLEKVLDNQVTESKELVRLYDYDLYTLGEVADRMRQNMHQKIVYFNVNRHLNPSNICADACKFCAFSAHRKNPNPYEMSLEEILEKVKNSYNKGIKEVHIVSAHNPNYSYEWYLKVFETIKQEMPNLHLKAMTAAEVHFLSVKFNKPFELVLEDMLKAGVDSMPGGGAEIFDEEIRRKICNGKVGSSRWLEIHAYWHKLGKMSNATMLFGHIENKIHRIDHMLRIKKIQSPKNQVENKEGGFNAFIPLLYQKENNYLNVEKSPSAIEILKTIAISRILLNNIPHIKAYWATLGLNLALVAQEFGANDLDGTIEIESIQSAAGAKSRHGLEKEDLIFKIKDAGFVAVERDSLYNFIQKF", "endpoint": "growth OD595 in M63-maltose", "reportedMeasurement": 0.09}
{"binder": "T18-HP1540 (natural protein, Helicobacter pylori strain 26695, UniProt O26065 2-167, looked up) ADIQRRDFLGMSLASVTAIGAIASLVAMKKTWDPLPSVVSAGFTTIDVANMQEGQFSTVEWRGKPVYILKRSKKEGFNEKRDFKVGESVFTTAIQICTHLGCIPTYQDEEKGFLCPCHGGRFTSDGVNIAGTPPPRPFDIPPFKIEGTKITFGEAGAEYKKMMAKA", "endpoint": "growth OD595 in M63-maltose", "reportedMeasurement": 0.24}

What value of growth OD595 in M63-maltose has been recorded for this entry: T18-HP0631 (natural protein, Helicobacter pylori strain 26695, UniProt O25348 2-384, looked up) FYDEKKTYQKIEERLDIVRSFNAHNEHKNLQDEFKGAGISRRDLLKWAGMMSTALALPASFAPLTLKAVEVANRLPVIWLHMAECTGCSESLLRSADPTIDSIIFDYINLEYHETIMVASGFQAEKSLHDAIEKHKNNYILMVEGGIPQGTEYFLTQGPNAETGAEECRKAAQYAAAIFAIGTCSSFGGVQAAYPNPSNAQPLHKIIDKPVINVPGCPPSEKNIVGNVLYYLMFGALPKLDAYNRPSWAYGNRIHDLCERRGHFDAGEFVEHFGDENAKRGFCLYKMGCKGPYTFNNCSKLRFNSHTSWPIGAGHGCIGCSEPNFWDTMSPFEEPLANRSIKTAFDGLGADKVADKVGTTLLSATAIGIVAHALLSKAIKNKE
0.08

Data origin, for the record: paper PMC5943153
